# PROCEDURE_SUMMARY: in vitro
# Assay type: in vitro ADME
# CONDITION_NOTES: rat, jejunum homogenate, pH 6
EXPERIMENTAL_READOUT: metabolised at 17.5 h (%)

1 = OC[C@H]1O[C@@](CO)(O[C@H]2O[C@H](CO)[C@@H](O[C@@H]3O[C@H](CO)[C@@H](O)[C@H](O)[C@H]3O)[C@H](O)[C@H]2O)[C@@H](O)[C@@H]1O [Cellobiofructose, cellobiofructose]
2 = OC[C@H]1O[C@@](CO)(O[C@H]2O[C@H](CO[C@@H]3O[C@H](CO)[C@@H](O)[C@H](O)[C@H]3O)[C@@H](O)[C@H](O)[C@H]2O)[C@@H](O)[C@@H]1O [Gentiobiofructose, gentiobiofructose]
3 = OC[C@H]1O[C@@](CO)(O[C@H]2O[C@H](CO)[C@@H](O)[C@H](O)[C@H]2O)[C@@H](O)[C@@H]1O [Saccharose, saccharose, reference compound]
Query block: Could you please order the items by metabolised at 17.5 h, going from the lowest number to the highest? Respond with an ordered listing of the labels, as requested.
Result block: 2, 1, 3

---

# PROCEDURE_SUMMARY: in vitro
# Type: in vitro ADME
# CONDITION_NOTES: rat, jejunum homogenate, pH 6
EXPERIMENTAL_READOUT: metabolised at 8.5 h (%)

• OC[C@H]1O[C@@](CO)(O[C@H]2O[C@H](CO[C@@H]3O[C@H](CO)[C@@H](O)[C@H](O)[C@H]3O)[C@@H](O)[C@H](O)[C@H]2O)[C@@H](O)[C@@H]1O = 0

A = OC[C@H]1O[C@@](CO)(O[C@H]2O[C@H](CO)[C@@H](O)[C@H](O)[C@H]2O)[C@@H](O)[C@@H]1O [Saccharose, saccharose, reference compound]
B = OC[C@H]1O[C@@](CO)(O[C@H]2O[C@H](CO)[C@@H](O[C@@H]3O[C@H](CO)[C@@H](O)[C@H](O)[C@H]3O)[C@H](O)[C@H]2O)[C@@H](O)[C@@H]1O
Query block: Short answer wanted: higher metabolised at 8.5 h, A or B ? Identify your pick by its label.
Result block: A

---

# PROCEDURE_SUMMARY: in vitro
# Type: in vitro ADME
# CONDITION_NOTES: human, jejunal mucous homogenate
EXPERIMENTAL_READOUT: metabolised at 10 h (%)

P = OC[C@H]1O[C@@](CO)(O[C@H]2O[C@H](CO)[C@@H](O[C@@H]3O[C@H](CO)[C@@H](O)[C@H](O)[C@H]3O)[C@H](O)[C@H]2O)[C@@H](O)[C@@H]1O
Q = OC[C@H]1O[C@@](CO)(O[C@H]2O[C@H](CO)[C@@H](O)[C@H](O)[C@H]2O)[C@@H](O)[C@@H]1O [Saccharose, saccharose, reference compound]
Query block: // max by metabolised at 10 h over [ P , Q ] Please indicate the selected item by its label.
Result block: Q
(Q: 57.1%, P: 0%)

---

# PROCEDURE_SUMMARY: in vitro
# Type: in vitro ADME
# CONDITION_NOTES: rat, jejunum homogenate, pH 6
EXPERIMENTAL_READOUT: metabolised at 24 h (%)

A = OC[C@H]1O[C@@](CO)(O[C@H]2O[C@H](CO[C@@H]3O[C@H](CO)[C@@H](O)[C@H](O)[C@H]3O)[C@@H](O)[C@H](O)[C@H]2O)[C@@H](O)[C@@H]1O
B = OC[C@H]1O[C@@](CO)(O[C@H]2O[C@H](CO)[C@@H](O[C@@H]3O[C@H](CO)[C@@H](O)[C@H](O)[C@H]3O)[C@H](O)[C@H]2O)[C@@H](O)[C@@H]1O
C = OC[C@H]1O[C@@](CO)(O[C@H]2O[C@H](CO)[C@@H](O)[C@H](O)[C@H]2O)[C@@H](O)[C@@H]1O [Saccharose, saccharose, reference compound]
Query block: Could you please sort these 3 entries by metabolised at 24 h from high to low? State the ranking by listing the labels in the requested order.
Result block: C, B, A
(C: 92.7%, B: 5.4%, A: 0.4%)

Data credit: patent US4978751A
